Tested on: NCI-H460 lung
Where a SMILES comes first, the peptide text is derived from it. Bridges are numbered along the chain shown (N, C = ends). Roman numbers before positions name the chains, in order. [ ]: non-standard residue; d: D form. The star is where a group is joined. Heptadecanoyl = CCCCCCCCCCCCCCCCC(=O)*; Phg = N[CH](C(=O)O)c1ccccc1
Possible outcomes: Y = active, N = inactive

{"columns": ["compound", "discreteLabel"],
 "data": [
  ["CCC1=C[C@H]2CN(CCc3c([nH]c4ccccc34)[C@@](C(=O)OC)(c3cc4c(cc3OC)N(C)[C@H]3[C@@](O)(C(=O)OC)[C@H](OC(C)=O)[C@]5(CC)[C@@H]6C[C@@H]6CN6CC[C@]43[C@@H]65)C2)C1", "Y"],
  ["Cc1ccc(S(=O)(=O)C2=C3C(=C(c4ccccc4)c4ccccc43)CN(S(=O)(=O)c3ccc(C)cc3)C2)cc1", "N"],
  ["COc1ccc2c(c1)N(CCO)C1=C(C(=O)OC1)C2c1cccc(Br)c1 (centres undefined)", "Y"],
  ["Cc1cccc2c(=O)c3c(sc12)c(NCCN)nc1ccccc13", "N"],
  ["CN(C)CCOc1cccc(NC2=C(Cl)C(=O)C(Nc3cccc(OCCN(C)C)c3)=C(Cl)C2=O)c1", "N"],
  ["Cn1cc(C2=C(c3cccc(NCC(O)CO)c3)C(=O)NC2=O)c2cc(Cl)ccc21 (centres undefined)", "N"],
  ["O=C(Nc1ncc(Cc2ccc(Cl)cc2)s1)c1ccc2c(c1)OCCO2", "Y"],
  ["CCCCCCCCCCCCCCCCC(=O)N1CCCC1C(=O)NCC(=O)NC(C(=O)N1CCCC1C(=O)NC(CO)C(=O)NC(Cc1ccc(O)cc1)C(=O)NC(CCCCNC(=O)C1CCCN1C(=O)C(CCCCN)NC(=O)C(CCCCN)NC(=O)C(CCCCN)NC(=O)C(CCCNC(=N)N)NC(=O)C(CCCCN)NC(=O)C(N)C(C)C)C(=O)NC(CC(C)C)C(=O)NC(CCCNC(=N)N)C(=O)N1CCCC1C(=O)NCC(N)=O)c1ccccc1 (centres undefined) (I: Heptadecanoyl-PG[Phg]PSYKLRPG-NH2 / II: H-VKRKKKP; amide I:7-II:C; configuration not given here)", "N"],
  ["COc1cc2c3c(n(CCCN4CCOCC4)c(=O)c2cc1OC)-c1cc2c(cc1C3=O)OCO2", "Y"],
  ["CCCNNC(=O)c1ccc(CNC(=O)/C=C/c2ccccc2)cc1", "Y"],
  ["C#Cc1ccc(-n2c(/C=C/c3ccc4ccccc4n3)nc3ncccc3c2=O)cc1", "N"],
  ["C[C@H]1[C@H](C)CC[C@]2(C(=O)O)CC[C@]3(C)C(=CC[C@@H]4[C@@]5(C)CC[C@H](OC(=O)/C=C\\c6ccc(O)cc6)C(C)(C)[C@@H]5CC[C@]43C)[C@H]12", "N"],
  ["Cn1cc(-c2nc(-c3cn(C)c4ncccc34)cs2)c2cc(F)ccc21", "N"],
  ["COc1ccc2c(c1)c(=O)oc1cc(OC/C(=N\\O)c3ccc(F)cc3)ccc12", "N"]
]}

---

Collected TGI values appear next to each entry.
System: MDA-N
Test: NCI tumour cell line growth inhibition, 48 h
quantity: TGI

{"columns": ["compound", "reported"],
 "data": [
  ["Cn1c2ccccc2c(=S)c2cc(NC(=O)CCCCC(=O)Nc3ccc4c(c3)c(=S)c3ccccc3n4C)ccc21", "> 100 µM"],
  ["O=C(/C=C/c1ccc2c(c1)OCO2)c1ccccc(=O)c1O", "> 100 µM"],
  ["COc1cc(OC)nc(NC(=O)NS(=O)(=O)c2cccc3ncn(C)c(=O)c23)n1", "> 100 µM"],
  ["O=C(CN1CCCC1)Nc1ccc2sc3ccccc3c(=O)c2n1", "77.6 µM"],
  ["CCC1CCN=C(Cn2cc(C)c(=O)[nH]c2=O)N1 (stereo unspecified)", "> 100 µM"],
  ["Cc1ccc2nc(Cl)c(/C=N/N3C(=O)/C(=C/Cc4ccco4)N=C3c3ccccc3)cc2c1", "39.6 µM"]
]}

Data provenance: PubChem BioAssay (NCI)
